Tested on: CEM cells HIV-1 protection, formazan growth assay
assay_method_text: NCI AIDS Antiviral Assay;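 active = compounds giving half or more protection of infected cells from virus-caused growth loss, again on retest; inactive = the rest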
Classes used: active, inactive

1) CC12CCC(=O)N1c1cc(Cl)ccc1N2 (stereo unspecified) = inactive
2) Nc1cccc(N=Nc2c(S(=O)(=O)O)cc3cc(NC(=O)Nc4ccc5c(O)c(N=Nc6cccc(N)c6)c(S(=O)(=O)O)cc5c4)ccc3c2O)c1 = active
3) Nc1ccc(/C=C/c2ccc(NC(=O)c3cc(S(=O)(=O)O)c4cccnc4c3O)cc2S(=O)(=O)O)c(S(=O)(=O)O)c1 = active
4) COc1ccc(-n2nc(C)ccc2=O)cc1 = inactive
5) COc1ccc(/C=C/c2nc(=S)[nH][nH]2)cc1OC = inactive
6) CC1(C)COC(c2cccc3c2C2C=CC3O2)=N1 (stereo unspecified) = inactive
7) O=C1CC2(CCNCC2)C(=O)N1N1CCCCC1 = inactive
8) Clc1ccc(Nc2nn3c(CCCCCCCCc4nnc5sc(Nc6ccc(Cl)cc6)nn45)nnc3s2)cc1 = inactive
9) N#CC(NNC(=O)c1ccccc1O)c1ccc(O)cc1 (stereo unspecified) = inactive
10) CCCCCCCCCC1CC(=O)c2c(O)cccc2O1 (stereo unspecified) = inactive
11) COc1cc(COC(=O)NC(Cc2cccs2)C(=O)O)c([N+](=O)[O-])cc1OC (stereo unspecified) = inactive

These data points were gathered from PubChem BioAssay AID179.
